system: Vero E6 infected with SARS-CoV-2; assay: morphology score (similarity to uninfected cells); higher = more like uninfected cells; conditions: 24 h
Decide using morphology score: a value greater than or equal to 0.1 is 1, a smaller one is -1.

O=C(O)c1ccc(S(=O)(=O)N(Cl)Cl)cc1 [halazone] (10 µM) | 1
NC(=O)c1cccc(N)c1 [3-amino-benzamide] (10 µM) | -1
O=C(O)c1nc(=O)[nH]c(=O)[nH]1 [oxonic-acid] (10 µM) | -1
CCN(CC)CCOC(=O)C1(c2ccccc2)CCCC1 [caramiphen] (10 µM) | 1

QUERY: Check the entry NC(=O)[C@@H](CC1CC1)[C@@H](CCC(F)(F)F)C(=O)N[C@H]1N=C(c2ccccc2)c2cccc(F)c2NC1=O (10 µM) : does morphology score equal or exceed 0.1?
RESULT: 1

QUERY: Check the entry C=C[C@@]1(C)CC(=O)[C@]2(O)[C@@]3(C)[C@@H](O)CCC(C)(C)[C@@H]3[C@H](OC(=O)CCN(C)C)[C@H](OC(C)=O)[C@@]2(C)O1 [colforsin-daproate] (0.833333 µM) : does morphology score equal or exceed 0.1?
RESULT: 1

QUERY: Check the entry CC1CCc2c(N3CCC(O)CC3)c(F)cc3c(=O)c(C(=O)O)cn1c23 (stereo not given) [nadifloxacin] (10 µM) : does morphology score equal or exceed 0.1?
RESULT: -1

QUERY: Check the entry OC(CCN1CCCCC1)(c1ccccc1)C1CC2C=CC1C2 (stereo not given) [biperiden] (10 µM) : does morphology score equal or exceed 0.1?
RESULT: 1

QUERY: Check the entry CC(C)c1cc(CNc2nc(Nc3cc(C4CC4)[nH]n3)cc(N3CCN(C)CC3)n2)on1 (10 µM) : does morphology score equal or exceed 0.1?
RESULT: -1
